These entries and their values trace back to patent US20150025225A1.

Target under test: T1, Baboon EL-C2 tag (baboon, UniProt Q9Y5X9 21-500 (human entry), limits assumed)
T1 chain: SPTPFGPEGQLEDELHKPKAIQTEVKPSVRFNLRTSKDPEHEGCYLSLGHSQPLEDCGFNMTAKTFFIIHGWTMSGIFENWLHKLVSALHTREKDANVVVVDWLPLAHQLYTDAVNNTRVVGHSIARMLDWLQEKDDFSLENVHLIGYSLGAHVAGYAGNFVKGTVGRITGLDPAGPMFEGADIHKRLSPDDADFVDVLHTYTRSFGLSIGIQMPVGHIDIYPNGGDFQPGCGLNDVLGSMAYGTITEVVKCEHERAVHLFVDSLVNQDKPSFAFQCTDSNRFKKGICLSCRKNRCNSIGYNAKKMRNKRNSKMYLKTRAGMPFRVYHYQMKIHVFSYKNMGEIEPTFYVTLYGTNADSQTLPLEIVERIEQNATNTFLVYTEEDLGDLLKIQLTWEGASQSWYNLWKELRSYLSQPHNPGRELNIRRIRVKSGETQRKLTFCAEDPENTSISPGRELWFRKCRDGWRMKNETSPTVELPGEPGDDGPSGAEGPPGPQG
Test description: cell-based or functional assay
Endpoint name: Neutralizing activity_IC50

Study these solved cases before continuing.
{"Binder": "47B2 antibody (antibody, IgG2a, V domains shown) VH: QVALKESGPGILQPSQTLSLTCSFSGFSLSTSGMGVGWIRQPSGKGLEWLAHIWWHGNKYYSTGLKSRLTISKDTSNNQVFLKIASVDTADTATYYCARISAGYPLDYWGQGTSVTVSS VL: DIQMTQSPSSLSASLGGKVTITCKASQDINKYIVWYQHKPGKGPRLLIHYTSTLQPGFPSRFSGSGSGRDYSLSITNLEPEDIATYYCLQYDNLLWTFGGGTKLEIK", "Observed value": "4.6 nM"}
{"Binder": "25E4 antibody (antibody, IgG2b, V domains shown) VH: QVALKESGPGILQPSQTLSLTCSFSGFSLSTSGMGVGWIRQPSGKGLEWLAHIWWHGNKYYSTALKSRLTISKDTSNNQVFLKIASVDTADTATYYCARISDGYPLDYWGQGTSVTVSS VL: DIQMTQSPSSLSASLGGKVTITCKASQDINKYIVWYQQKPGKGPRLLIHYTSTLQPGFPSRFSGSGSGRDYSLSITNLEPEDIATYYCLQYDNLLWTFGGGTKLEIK", "Observed value": "5.7 nM"}
{"Binder": "12B10 antibody (antibody, IgG2a, V domains shown) VH: QVTLKESGPGILKPSQTLSLTCSFSGFSLSTSGMGVGWIRQPSGKGLEWLAHIWWNDEKYYNPSLKSQLTISKDTSRNQVFLKITSVDTADTATYYCARSYDGSPFPSWGQGTLVTVSA VL: DIQMTQSPSSLSASLGGKVTITCKASQDINKYIAWFQHKPGKGPRLLMAYPFTLQPGIPSRFSGNGSGRDYSFSISNLEPEDIATYYCLQYDNLLWTFGGGTRLEIK", "Observed value": "7.1 nM"}

IN: Give the reported value of Neutralizing activity_IC50 for this record: 16A11 antibody (antibody, IgG1, V domains shown) VH: QVTLKESGPGILQPSQTLSLTCSFSGFSLSTSGMGVGWVRQPSGKGLEWLAHIWWNDYYYYKTALKSRLTISKDTSNNQVFLKIASVDTVDTATYYCARMAPGTPFPSWGQGTLVTVSA VL: DIQMTQSPSSLSASLGGKVTITCKASQDINRYIAWYQHKPGKGPRLLIHYTSTLQPGIPSRFSGSGSGRDYSFSISNLEPEDIATYYCLQYDILLWTFGGGTKLEIK
OUT: 6.2 nM
